# Tested on: SARS-CoV-2 (USA-WA1/2020) in Calu-3 cells
# Assay type: cell-based
# recorded conditions: low dose (100 nM), Calu-3, 48 h
Where a name gives a salt, the structure may show the parent alone.
Output schema: class label derived from dsRNA signal, AU Low. Mapping: low class (below 10000 AU), middle class (10000 AU to below 30000 AU), high class (30000 AU or more)

Cc1cn(-c2cc(NC(=O)c3ccc(C)c(Nc4nccc(-c5cccnc5)n4)c3)cc(C(F)(F)F)c2)cn1.Cl.O [Nilotinib monohydrochloride monohydrate]	middle class
N#C/C(=C/c1ccc(O)c(O)c1)C(=O)NCc1ccccc1 [AG-490]	low class
CN(C)C(=N)N=C(N)N [Metformin HCl]	middle class
C[C@@H]1O[C@@H](OC[C@H]2O[C@@H](Oc3cc(O)c4c(=O)cc(-c5ccc(O)cc5)oc4c3)[C@H](O[C@@H]3O[C@@H](C)[C@H](O)[C@@H](O)[C@H]3O)[C@@H](O)[C@@H]2O)[C@H](O)[C@H](O)[C@H]1O [Ligustroflavone]	low class
CCCCNc1ncc2c(-c3ccc(CN4CCN(C)CC4)cc3)cn([C@H]3CC[C@H](O)CC3)c2n1 [UNC2025]	high class

Which class holds NC(=O)c1ccc(-c2nc(-c3ccc4c(c3)OCCO4)c(-c3ccccn3)[nH]2)cc1 [D4476] ?
middle class

Place this compound in its band: Cn1cc(-c2ccc3c(c2)CCN3C(=O)Cc2cccc(C(F)(F)F)c2)c2c(N)ncnc21 [GSK2606414]
middle class

# bin lookup: classify Cc1cccc(-c2[nH]c(CNc3ccccc3F)nc2-c2ccc3ncnn3c2)n1 [EW-7197] by its dsRNA signal, AU Low
low class

Looking at OCCn1cc(-c2ccc3c(c2)CC/C3=N\O)c(-c2ccncc2)n1 [GDC-0879] , which class would you pick?
high class

Place this compound in its band: CCn1c(=O)c(-c2cc(NC(=O)Nc3ccccc3)c(F)cc2Br)cc2cnc(NC)cc21 [DCC-2618]
middle class

Sort into band: CC(C)=CCC[C@](C)(O[C@@H]1O[C@H](CO[C@@H]2O[C@H](CO)[C@@H](O)[C@H](O)[C@H]2O)[C@@H](O)[C@H](O)[C@H]1O)[C@H]1CC[C@]2(C)[C@@H]1[C@H](O)C[C@@H]1[C@@]3(C)CC[C@H](O[C@@H]4O[C@H](CO)[C@@H](O)[C@H](O)[C@H]4O[C@@H]4O[C@H](CO)[C@@H](O)[C@H](O)[C@H]4O)C(C)(C)[C@@H]3CC[C@]12C [Ginsenoside Rb1]
high class
